# Tested on: L929 cell line
# experimental-details: Cytotoxicity MTS assay, L929 cell line
# Assay type: cell-based
# experimental-conditions: L929 cell line, 50μM, first assay
measurement-label: OD490 values, Mean
// response body must contain only the number

Q. Look up OD490 values, Mean for this compound: CCOC(=O)c1[nH]c(C2NC(=S)NC(C)=C2C(=O)OC)c(C(=O)OCC)c1C (stereo not shown) [D12]
A. 1.0425

Q. Please do the same for CCOc1ccccc1C1NC(=S)NC(C)=C1C(=O)Nc1ccc(Cl)cc1 (stereo not shown) [C9] as well.
A. 1.0589

Q. Another: CCOC(=O)c1[nH]c(C2NC(=O)NC(C)=C2C(=O)Nc2ccc(Cl)cc2)c(C(=O)OCC)c1C (stereo not shown) [D7]
A. 1.1393

Q. One more compound: CCOC(=O)c1[nH]c(C2NC(=O)NC(C)=C2C(=O)Nc2ccccc2C)c(C(=O)OC)c1C (stereo not shown) [D4]
A. 0.9261

Q. Further, for COC(=O)c1[nH]c(C2NC(=S)NC(C)=C2C(=O)c2ccccc2)c(C(=O)OC)c1C (stereo not shown) [D14] ?
A. 1.0826

Q. Quick one: CCOC(=O)c1c(C2NC(=O)NC(C)=C2C(=O)Nc2ccccc2)[nH]c(C(=O)OC)c1C (stereo not shown) [D10]
A. 1.0704

Q. # iterate: CCOC(=O)c1c(C2NC(=O)NC(C)=C2C(=O)Nc2ccccc2OC)[nH]c(C(=O)OC)c1C (stereo not shown) [D1]
A. 1.2064

Q. Input CCOC(=O)c1c(C2NC(=O)NC(C)=C2C(=O)Nc2ccccc2C)[nH]c(C(=O)OC)c1C (stereo not shown) [D2]
A. 1.4864

Q. Same thing, different compound: CCOC(=O)c1[nH]c(C2NC(=O)NC(C)=C2C(=O)Nc2ccccc2OC)c(C(=O)OC)c1C (stereo not shown) [D3]
A. 1.1939

Q. // same read-out, input: CCOC(=O)C1=C(C)NC(=S)NC1c1cccc(O)c1 (stereo not shown) [Monastrol, monastrol, reference compound]
A. 1.3431

* * *

For each record, write down the corresponding OD490 Well 3.
# Tested on: T24 cell line
# experimental-details: Cytotoxicity MTS assay, T24 cell line;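 further: blank control wells received 0.025% DMSO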
# Assay type: cell-based
# experimental-conditions: T24 cell line, 100μM, second assay
Enter a number only.

Q. Dear colleague, I am looking for the recorded OD490 Well 3 of the following compound: CCOC(=O)c1[nH]c(C2NC(=O)NC(C)=C2C(=O)Nc2ccccc2C)c(C(=O)OC)c1C (centres unmarked) [D4]
A. 1.2365

Q. What about CCOC(=O)C1=C(C)NC(=S)NC1c1cccc(O)c1 (centres unmarked) [Monastrol, monastrol, reference compound] ?
A. 1.3587

Q. How about CCOC(=O)c1c(C2NC(=O)NC(C)=C2C(=O)Nc2ccccc2OC)[nH]c(C(=O)OC)c1C (centres unmarked) [D1] ?
A. 1.2235

Q. // same read-out, input: CCOc1ccccc1C1NC(=S)NC(C)=C1C(=O)Nc1ccc(Cl)cc1 (centres unmarked) [C9]
A. 1.0230

Q. Would you kindly repeat that for CCOC(=O)c1c(C2NC(=O)NC(C)=C2C(=O)Nc2ccccc2C)[nH]c(C(=O)OC)c1C (centres unmarked) [D2] ?
A. 1.4842

* * *

# Tested on: T24 cell line
# experimental-details: Cytotoxicity MTS assay, T24 cell line;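 further: blank control wells received 0.025% DMSO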
# Assay type: cell-based
# experimental-conditions: T24 cell line, 100μM, third assay
Please go through the items and note down their OD490 Well 2.

Q. Name the reported OD490 Well 2 value associated with the molecule CCOC(=O)c1c(C2NC(=O)NC(C)=C2C(=O)Nc2ccccc2OC)[nH]c(C(=O)OC)c1C (stereo not shown) [D1]
A. 1.4058

Q. Same question, CCOC(=O)c1[nH]c(C2NC(=O)NC(C)=C2C(=O)Nc2ccccc2C)c(C(=O)OC)c1C (stereo not shown) this time
A. 1.3332

Q. Ok, now CCOc1ccccc1C1NC(=S)NC(C)=C1C(=O)Nc1ccc(Cl)cc1 (stereo not shown)
A. 1.1123

Q. What do you get for CCOC(=O)C1=C(C)NC(=S)NC1c1cccc(O)c1 (stereo not shown) [Monastrol, monastrol, reference compound] ?
A. 1.3885

* * *

# assayed-target: Eg5 motor protein (Homo sapiens, UniProt P52732)
# Construct: Eg5 motor domain (amino acids 1-368) was cloned into pET22b; His-tag (C); made in house; host or cells: Escherichia coli BL21 (DE3)
# Sequence (P52732 1-368): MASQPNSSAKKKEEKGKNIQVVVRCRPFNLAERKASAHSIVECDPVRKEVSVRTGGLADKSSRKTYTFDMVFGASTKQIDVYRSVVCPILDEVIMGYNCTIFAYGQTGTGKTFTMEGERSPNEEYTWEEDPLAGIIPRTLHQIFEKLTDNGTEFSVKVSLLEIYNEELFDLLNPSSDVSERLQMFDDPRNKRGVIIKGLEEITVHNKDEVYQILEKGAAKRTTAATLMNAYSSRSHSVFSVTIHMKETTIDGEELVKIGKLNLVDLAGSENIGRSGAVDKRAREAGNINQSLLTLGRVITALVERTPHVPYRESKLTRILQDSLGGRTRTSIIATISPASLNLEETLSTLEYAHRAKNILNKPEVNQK
# experimental-details: microtubule-activated Eg5 motor protein ATPase assay (malachite green, OD630)
# Type: biochemical
# experimental-conditions: compound 60.61 uM
measurement-label: OD630 Value Mean
API doc: respond with a numeric literal and nothing else, no unit.

Q. Consider the compound shown here: CCOC(=O)c1[nH]c(C2NC(=O)NC(C)=C2C(=O)Nc2ccc(Cl)cc2)c(C(=O)OCC)c1C (stereo not shown) [D7] What is its recorded OD630 Value Mean?
A. 0.197

Q. Try this compound too: CCOC(=O)c1[nH]c(C2NC(=O)NC(C)=C2C(=O)Nc2ccccc2C)c(C(=O)OC)c1C (stereo not shown) [D4]
A. 0.158

Q. Similarly, CCOC(=O)c1c(C2NC(=O)NC(C)=C2C(=O)Nc2ccccc2)[nH]c(C(=O)OC)c1C (stereo not shown) [D10] ?
A. 0.225

Q. And the next one, CCOc1ccccc1C1NC(=S)NC(C)=C1C(=O)Nc1ccc(Cl)cc1 (stereo not shown) [C9] ?
A. 0.163

* * *

# Test system: T24 cell line
# experimental-details: Cytotoxicity MTS assay, T24 cell line;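 further: blank control wells received 0.025% DMSO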
# Format: cell-based
# experimental-conditions: T24 cell line, 50μM, second assay
measurement-label: OD490 Well 3

Q. What does the record list as OD490 Well 3 for CCOC(=O)c1c(C2NC(=O)NC(C)=C2C(=O)Nc2ccccc2OC)[nH]c(C(=O)OC)c1C (centres unmarked) [D1] ?
A. 1.4896

Q. Same question for CCOC(=O)C1=C(C)NC(=S)NC1c1cccc(O)c1 (centres unmarked) [Monastrol, monastrol, reference compound] please.
A. 1.6841

Q. Field entry: CCOc1ccccc1C1NC(=S)NC(C)=C1C(=O)Nc1ccc(Cl)cc1 (centres unmarked)
A. 1.2688

Q. Now give it for CCOC(=O)c1c(C2NC(=O)NC(C)=C2C(=O)Nc2ccccc2C)[nH]c(C(=O)OC)c1C (centres unmarked) [D2] too.
A. 1.7420

Q. Could you do the same for CCOC(=O)c1[nH]c(C2NC(=O)NC(C)=C2C(=O)Nc2ccccc2C)c(C(=O)OC)c1C (centres unmarked) , please?
A. 1.3652

* * *

# System: T24 cell line
# experimental-details: Cytotoxicity MTS assay, T24 cell line;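 further: blank control wells received 0.025% DMSO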
# Type: cell-based
# experimental-conditions: T24 cell line, 50μM, third assay
measurement-label: OD490 Well 1
Number only, please.

Q. Suppose we examine the molecule CCOc1ccccc1C1NC(=S)NC(C)=C1C(=O)Nc1ccc(Cl)cc1 (stereo not shown) ; what OD490 Well 1 value has been reported?
A. 1.2854

Q. Please do the same for CCOC(=O)c1[nH]c(C2NC(=O)NC(C)=C2C(=O)Nc2ccccc2C)c(C(=O)OC)c1C (stereo not shown) as well.
A. 1.4284

Q. // same read-out, input: CCOC(=O)C1=C(C)NC(=S)NC1c1cccc(O)c1 (stereo not shown) [Monastrol, monastrol, reference compound]
A. 1.3024

Q. Could you do the same for CCOC(=O)c1c(C2NC(=O)NC(C)=C2C(=O)Nc2ccccc2OC)[nH]c(C(=O)OC)c1C (stereo not shown) [D1] , please?
A. 1.4214

* * *

# Test system: Caco-2 cell line
# experimental-details: Cytotoxicity MTS assay, Caco-2 cell line
# Format: cell-based
# experimental-conditions: 50μM; first assay; Caco-2 cell line
Answer each item with its documented OD490 Well 2.
# output: bare number, no unit

Q. So what's the measured OD490 Well 2 for this one? CCOC(=O)c1c(C2NC(=O)NC(C)=C2C(=O)Nc2ccccc2C)[nH]c(C(=O)OC)c1C (stereo not shown) [D2]
A. 0.6084

Q. Would you kindly repeat that for CCOc1ccccc1C1NC(=S)NC(C)=C1C(=O)Nc1ccc(Cl)cc1 (stereo not shown) ?
A. 0.4511

Q. Try CCOC(=O)c1[nH]c(C2NC(=O)NC(C)=C2C(=O)Nc2ccccc2OC)c(C(=O)OC)c1C (stereo not shown) next.
A. 0.7874

Q. And the next one, CCOC(=O)c1[nH]c(C2NC(=O)NC(C)=C2C(=O)Nc2ccc(Cl)cc2)c(C(=O)OCC)c1C (stereo not shown) ?
A. 0.4168

Q. Could you do the same for CCOC(=O)c1[nH]c(C2NC(=S)NC(C)=C2C(=O)OC)c(C(=O)OCC)c1C (stereo not shown) , please?
A. 0.5840

Q. Note, next up: CCOC(=O)c1c(C2NC(=O)NC(C)=C2C(=O)Nc2ccccc2OC)[nH]c(C(=O)OC)c1C (stereo not shown) [D1]
A. 0.5114

Q. Also, CCOC(=O)c1[nH]c(C2NC(=O)NC(C)=C2C(=O)Nc2ccccc2C)c(C(=O)OC)c1C (stereo not shown) please.
A. 0.5055

Q. Proceed to CCOC(=O)c1c(C2NC(=O)NC(C)=C2C(=O)Nc2ccccc2)[nH]c(C(=O)OC)c1C (stereo not shown)
A. 0.5436

Q. What do you have for CCOC(=O)C1=C(C)NC(=S)NC1c1cccc(O)c1 (stereo not shown) [Monastrol, monastrol, reference compound] ?
A. 0.5627

Q. Follow-up entry: COC(=O)c1[nH]c(C2NC(=S)NC(C)=C2C(=O)c2ccccc2)c(C(=O)OC)c1C (stereo not shown)
A. 0.5192
